Test system: A549 NSCLC
EXPERIMENT: NCI tumour cell line growth inhibition, 48 h
Each entry below lists one item and its recorded TGI value.
READOUT_TYPE: TGI

1) C/C=C\C(CC(=O)NCCC1CN(C(=O)OCc2ccccc2)c2ccccc21)CC(=O)OC (centres undefined) = > 100 µM
2) CC1=C[C@H]([C@H]2C=C(C)C(C(N)=O)=CN2Cc2c(Cl)cccc2Cl)N(Cc2c(Cl)cccc2Cl)C=C1C(N)=O = > 75 µM
3) CNS(=O)(=O)NNS(=O)(=O)c1ccc(F)cc1 = > 100 µM
4) Cc1nn(C(=O)Cc2ccccc2)c2c1C(c1ccc([N+](=O)[O-])cc1)SC(N)=N2 (centres undefined) = > 100 µM
5) COC(=O)CCC(=O)c1ccc2c(c1)CC1(C2)Cc2ccc(C(=O)CCC(=O)OC)cc2C1 = > 100 µM
6) CN=C1CN=C(OP(=O)(N2CCOCC2)N2CCOCC2)c2cc(Cl)ccc2N1 = > 100 µM
7) Cc1[nH]c2ccccc2c1C1=NO/C(=N\O)C(c2c(C)[nH]c3ccccc23)C1 (centres undefined) = > 100 µM
8) CC[O-].CC[O-].O=C([CH-]C(=O)c1ccccc1)CCCCCCC(=O)[CH-]C(=O)c1ccccc1.[Ti+4] = > 100 µM
9) c1ccc(SCCc2ccncc2)cc1 = > 100 µM
10) CN(CCNC(=O)c1nn(-c2ccc(Cl)cc2Cl)c2c1Cc1ccccc1-2)CCNC(=O)c1nn(-c2ccc(Cl)cc2Cl)c2c1Cc1ccccc1-2 = 28.8 µM
11) O=S1(=O)c2ccccc2N2C(c3ccccc3)=NOC2(c2ccccc2)CC1c1ccc(Br)cc1 (centres undefined) = > 100 µM
12) O=S(=O)(O)n1ccnc1 (tested in a mixture with another compound) = > 100 µM
13) O=C(O)c1ccccc1/C=C1/Cc2ccc3c(c2C1=O)CCC3 = > 100 µM
14) CCN(CCO)CCCC(C)Nc1ccnc2cc(Cl)ccc12 (centres undefined) = > 100 µM
15) CN(C)/C=C/c1c2c(nc3ccccc13)C(=O)c1cccnc1C2=O = 2.59 µM
16) COc1ccc2nc3cc([N+](=O)[O-])ccc3c(Nc3ccc(S(=O)(=O)Nc4ncccn4)cc3)c2c1 = > 100 µM
17) O=C1/C(=C/c2ccc(F)cc2)CN(C(=O)C(Cl)Cl)C/C1=C\c1ccc(F)cc1 = 1.38 µM
18) COCN1C(=N)C(C(=O)OC(C)(C)C)=C2C=C(O)C=CC21C (centres undefined) = 34.9 µM
19) Cn1ccc(=NS(=O)(=O)c2ccccc2)cc1 = > 100 µM
20) CC(C)(CCl)NC(=O)c1cccc(C(=O)NC(C)(C)CCl)n1 = > 100 µM
21) COc1ccc(C(=O)CCN(C)C)c2ccccc12 = > 100 µM
22) CN(/N=C/c1ccccc1O)c1ccc2ccccc2n1 = 29.8 µM
23) Nc1ccn(CCOC(c2ccccc2)P(=O)(O)O)c(=O)n1 (centres undefined) = > 100 µM
24) CC(C)c1cccc(C(C)C)c1NC(=O)C(=O)C1CCC2=C(Sc3ccccc3N2)C1=O (centres undefined) = > 100 µM
25) OCCN(CCO)c1nc(N2CCCCC2)c2nc(N(CCO)CCO)nc(N3CCCCC3)c2n1 = > 100 µM
26) CCOC(=O)c1c2c(n3ccc(NC(=O)CCN4CCCCC4)cc13)C(=O)c1ncccc1C2=O = 2.81 µM
27) CCCCc1n(Cc2ccc3ccccc3n2)cc[n+]1Cc1ccc2ccccc2n1 = 18.6 µM
28) N#Cc1ccc(OCCSCCCCCCCCCCSCCOc2ccc(C#N)cc2)cc1 = > 100 µM
29) C[C@]12CCc3nonc3C1CC[C@@H]1C2CC[C@@]2(C)C1CC[C@@H]2O (some centres undefined) = > 100 µM
30) COc1ccc(C(=O)c2nc3ccccc3nc2N2CCN(c3ccccc3)CC2)cc1OC = > 100 µM
31) COc1cc2c3c(n(CCCn4cncn4)c(=O)c2cc1OC)-c1cc2c(cc1C3=O)OCO2 = > 100 µM
32) CS(=O)(=O)NNS(=O)(=O)c1ccc(F)cc1 = > 100 µM
33) O=C(O)CCSC(=O)Nc1cccc2ccccc12 = > 100 µM
34) COc1ccc(C2CC(c3ccc(OC)cc3O)=NN2c2ccc(S(N)(=O)=O)cc2)cc1 (centres undefined) = > 100 µM

* * *

System: NCI-H460 lung
Outcomes: active, inactive

1. Cc1ccc2[nH]c(C(=O)NN3C(=O)C(C)SC34CCC(C)CC4)c(-c3ccccc3)c2c1 (stereo not drawn) = inactive
2. O=C(c1ccccc1)C1OC1C(=O)c1ccccc1 (stereo not drawn) = inactive
3. O=c1oc2ccc(Cl)cc2c(=O)n1-c1ccc(F)cc1F = inactive
4. Cc1ccc(-c2nc(/C=N/Nc3cc(C)nc4ccc(Br)cc34)c(C)o2)cc1 = inactive
5. COc1cc2c(cc1O)c(=O)n(CCN(C)C)c1c3cc4c(cc3ncc21)OCO4 = active
6. CCN(CC)CCn1c(=O)c2cc(OC)c(OC)cc2c2ccc3cc4c(cc3c21)OCO4 = active
7. COC(=O)C1=C(C(=O)ON)[C@@H]2C=C[C@@]1([C@@H](Cc1ccccc1)Nc1ccccc1)O2 = inactive
8. [Co].[O-]c1cccnc1C=Nc1ccccc1.[OH3+] = inactive

* * *

Tested on: 786-0 renal
EXPERIMENT: NCI tumour cell line growth inhibition, 48 h
Each entry below lists one item and its recorded TGI value.
READOUT_TYPE: TGI

1) CCO[C@H]1O[C@@H]2OC3(C)CCC4[C@H](C)CCC([C@H]1C)[C@]42OO3 (stereo partly drawn) = > 100 µM
2) CCOC(=O)C(NC(=O)c1ccccc1)(c1ccc(S(=O)(=O)Nc2onc(C)c2C)cc1)C(F)(F)F (stereo not drawn) = > 100 µM
3) c1cc(C2=NCCO2)c2ccsc2c1 = > 100 µM

* * *

Each entry below lists one item and its recorded TGI value.
Tested on: U251 CNS
EXPERIMENT: NCI tumour cell line growth inhibition, 48 h
READOUT_TYPE: TGI

1) O=Cc1ccccc1CCn1c(=O)c2cc3c(=O)n(CCc4ccccc4C=O)c(=O)c3cc2c1=O = > 100 µM
2) COC(=O)/C(=N\NC(N)=O)C(C#N)c1ccccc1 (stereo unspecified) = > 100 µM
3) COc1ccccc1/C=N/Nc1nnc2c3ccccc3c3ncccc3c2n1 = > 100 µM
4) COc1cc2c(/C=C3/C(=O)Nc4ccc(O)cc43)c(Cl)n(Cc3cc(OC)c(OC)c(OC)c3)c2cc1C = > 28.3 µM
5) CC(ON1[C@](C)(c2ccccc2)CC[C@@]1(C)c1ccccc1)c1ccccc1 (stereo partly specified) = > 100 µM
6) CO/C=C(\Br)c1ccc2c(c1)OCO2 = > 100 µM

* * *

System: NCI-H522 lung
EXPERIMENT: NCI tumour cell line growth inhibition, 48 h
Each entry below lists one item and its recorded TGI value.
READOUT_TYPE: TGI

1. COc1ccc2nc3c(cc2c1)C(=O)CC(c1ccccc1)C3 (centres undefined) = > 67.4 µM
2. COc1ccc(C(=O)c2nc3ccccc3nc2N2CCN(c3ccccc3)CC2)cc1OC = > 100 µM
3. COc1ccccc1/C=N/Nc1nnc2c3ccccc3c3ncccc3c2n1 = > 100 µM
4. CN=C1CN=C(OP(=O)(N2CCOCC2)N2CCOCC2)c2cc(Cl)ccc2N1 = > 100 µM

* * *

Test system: SN12C renal
EXPERIMENT: NCI tumour cell line growth inhibition, 48 h
READOUT_TYPE: TGI

1. CN/N=C(\C)C(CN1CCCCC1)C(C1=C(O)c2ccccc2OC1)c1ccccc1 (centres undefined) = > 100 µM
2. CC[O-].CC[O-].O=C([CH-]C(=O)c1ccccc1)CCCCCCC(=O)[CH-]C(=O)c1ccccc1.[Ti+4] = > 100 µM
3. O=C1CCCCN1 = > 1120 µM
4. COc1ccc2nc3c(cc2c1)C(=O)CC(c1ccccc1)C3 (centres undefined) = > 100 µM
5. CCOc1ccccc1Nc1ccc(N)cc1S(=O)(=O)O = > 100 µM
6. Cc1ccc2[nH]c(C(=O)NN3C(=O)C(C)SC34CCC(C)CC4)c(-c3ccccc3)c2c1 (centres undefined) = 28 µM
7. COC(=O)[C@@H]1C[C@]2(Br)c3ccccc3N(S(=O)(=O)c3ccccc3)[C@@H]2N1C(=O)OC = > 100 µM
8. CC(=O)C1C(=O)C(C(C)=O)C2C3C=CC(C3)C12 (centres undefined) = > 100 µM
9. Cc1oc2nc(N(C)C)nc(NN)c2c1C = > 100 µM

* * *

Each entry below lists one item and its recorded TGI value.
Test system: SNB-19 CNS
EXPERIMENT: NCI tumour cell line growth inhibition, 48 h
Peptide text beside a SMILES is read from it. * marks the point of attachment. X34 = O=C(c1ccc(-c2ccc(Cl)cc2Cl)o1)*
READOUT_TYPE: TGI

1) CC(C)=NOC(=O)OC[C@H]1O[C@@H](n2cnc3c(N)ncnc32)C(O)C1O (stereo partly drawn) = > 100 µM
2) CC(=O)NCc1c(C(N)=O)ncn1Cc1ccccc1 = > 100 µM
3) NNc1nc2ccccc2o1 = > 100 µM
4) O=S(=O)(O)c1cc(S(=O)(=O)O)c2c(N=Nc3ccc(S(=O)(=O)O)c4ccccc34)c(O)ccc2c1 = > 100 µM
5) O=[N+]([O-])c1ccc(N=Nc2c(Cl)cc(O)cc2Cl)cc1 = 15.7 µM
6) O=C1NC(=O)C(C(c2ccc([N+](=O)[O-])cc2)C2C(=O)NC(=O)NC2=O)C(=O)N1 = > 100 µM
7) OCC(O)COCn1cc(Cn2ncc3c(NCc4ccccc4)ncnc32)nn1 (stereo not drawn) = > 100 µM
8) CCCCC(OC(=O)c1ccc(N)cc1)C(=O)Nc1nc(CC(=O)OCC)cs1 (stereo not drawn) = > 100 µM
9) CC(C)(CCl)NC(=O)c1cccc(C(=O)NC(C)(C)CCl)n1 = > 100 µM
10) COC(=O)C(CC(C)C)NC(=O)C(Cc1ccccc1)NC(=O)C1CCCN1C(=O)C(CO)NC(=O)c1ccc(-c2ccc(Cl)cc2Cl)o1 (stereo not drawn) (X34-SPFL-OMe; configuration not given here) = > 100 µM
11) CCOc1ccccc1Nc1ccc(N)cc1S(=O)(=O)O = > 100 µM
12) O=C1c2ccccc2C(=O)c2c1oc1c2c(=O)[nH]c2ccc(Cl)cc21 = 1.1 µM
13) CN(C)c1ccc(C2CC(=O)CC(c3ccc(N(C)C)cc3)C23C(=O)NC(=S)NC3=O)cc1 (stereo not drawn) = > 100 µM
